Test: Determination of lipophilicity by RP-HPLC (capacity factor k)
Format: physicochemical
Details: C18, isocratic MeOH 72%/H2O 28%, 40 °C
Label rule, in plain words: log k of 0.6 and up is True, under 0.6 is False.

[
  {
    "Smiles Structure": "O=C(Nc1ccc(C(=O)Nc2ccc(Cl)cc2)c(O)c1)OCc1ccccc1",
    "Class Name": "True"
  },
  {
    "Smiles Structure": "O=C(Nc1ccc(C(=O)Nc2c(Cl)cccc2Cl)c(O)c1)OCc1ccccc1",
    "Class Name": "True"
  },
  {
    "Smiles Structure": "Cc1cccc(NC(=O)c2ccc(NC(=O)OCc3ccccc3)cc2O)c1",
    "Class Name": "False"
  },
  {
    "Smiles Structure": "O=C(Nc1ccc(C(=O)Nc2ccc(C(F)(F)F)cc2)c(O)c1)OCc1ccccc1",
    "Class Name": "True"
  },
  {
    "Smiles Structure": "O=C(Nc1ccc(C(=O)Nc2cccc(F)c2F)c(O)c1)OCc1ccccc1",
    "Class Name": "False"
  },
  {
    "Smiles Structure": "O=C(Nc1ccc(C(=O)Nc2ccccc2C(F)(F)F)c(O)c1)OCc1ccccc1",
    "Class Name": "False"
  },
  {
    "Smiles Structure": "O=C(Nc1ccc(C(=O)Nc2cc(Cl)cc(Cl)c2)c(O)c1)OCc1ccccc1",
    "Class Name": "True"
  },
  {
    "Smiles Structure": "O=C(Nc1ccc(C(=O)Nc2cc(F)c(F)c(F)c2)c(O)c1)OCc1ccccc1",
    "Class Name": "False"
  }
]
